Hey, just so you know, these numbers are from paper PMC5636972.

- Tested on: MCF-10A cells
- assay_summary: MTT cell viability assay, non-tumorigenic MCF-10A
- Format: cell-based
- condition_summary: MTT, 72 h, normal cells
pEC50: −log10 of the molar value.
observable: pEC50

Some solved cases for reference:
INSERT INTO assay_data (molecule, assayed_system, observable, reading) VALUES
  ('COC(=O)C(Cc1c[nH]c2ccccc12)NC(=O)CCl (centres unmarked) [Compound 1c]', 'MCF-10A cells', 'pEC50', '< 4.70'),
  ('COC(=O)[C@@H](Cc1c[nH]c2ccccc12)NC(=O)CI [I-Trp]', 'MCF-10A cells', 'pEC50', '< 4.70'),
  ('COC(=O)C(Cc1c[nH]c2ccccc12)NC(=O)C(F)(F)F (centres unmarked) [Compound 1g]', 'MCF-10A cells', 'pEC50', '< 4.70');

Need pEC50 of COC(=O)C(Cc1c[nH]c2ccccc12)NC(=O)C(Cl)Cl (centres unmarked) [Compound 1d] , thanks. < 4.70

Need pEC50 of COC(=O)C(Cc1c[nH]c2ccccc12)NC(=O)CBr (centres unmarked) [Compound 1b] , thanks. < 4.70

Need pEC50 of COC(=O)C(Cc1c[nH]c2ccccc12)NC(=O)CC(F)(F)F (centres unmarked) [Compound 1f] , thanks. < 4.70

Need pEC50 of COC(=O)C(Cc1c[nH]c2ccccc12)NC(=O)C[N+](=O)[O-] (centres unmarked) [Compound 1e] , thanks. < 4.70

Need pEC50 of COC(=O)C(Cc1c[nH]c2ccccc12)NC(=O)CC#N (centres unmarked) [Compound 1h] , thanks. < 4.70
